Reported growth inhibition values for the following compounds.
- PROTOCOL: NCI Yeast Anticancer Drug Screen. Data for the cln2 rad14 strain (AID 165);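 further: 0% = growth equal to vehicle treated cultures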
- ASSAY_CONDITIONS: S. cerevisiae cln2 rad14 strain, at 50.0 µM (retest, dose inferred, filed as 5.0), hits give high values
- Procedure: Growth inhibition of yeast strains with defined genetic alterations is measured as a screen for potential anti-cancer activity. Selected strains with alterations in DNA damage repair or cell cycle control were exposed to compounds and growth inhibition was measured relative to vehicle treated controls. The strain used in this assay is cln2 rad14
Compounds without any hit were thinned out: in the full panel of roughly 79,000, 15% have a hit.
Report the figure in % without appending any unit label.

O=c1cccc(C2CC(CO)C3CCCCN3C2)[nH]1 (configuration not stated)	-12
CCCCCCCC(=O)[O][Hg][c]1ccccc1	99
[O-][n+]1onc2c1-c1nonc1CC2	21
CC(=O)C(CN1CCOCC1)C(c1ccccc1)c1c(O)c2ccccc2oc1=O (configuration not stated)	79
COc1cc(/C=C\[N+](=O)[O-])ccc1O	100
Cc1ccc(NC(=O)CBr)cc1	99

# evaluate next
Given the compound "N#CS.[Ag]" , what is its reported growth inhibition?
98
